- assayText: Intrinsic clearance in human liver microsomes after 30 mins
- Assay type: ADME
- experimentalContext: read-out: CLH
Mark TRUE for microsomal CLint under 90 µL/min/mg, FALSE if at or over.

smilesStructure	class
CC(C)(C)OC(=O)N1CCN(c2ccc(OCc3ccc(S(C)(=O)=O)cc3)nn2)CC1	FALSE
CC(C)(C)OC(=O)N1CCN(c2ncc(OCc3ccc(S(C)(=O)=O)cc3)nn2)CC1	FALSE
CC(C)(C)OC(=O)N1CCN(c2ccc(OCc3ccc(S(C)(=O)=O)cc3)cn2)CC1	FALSE
CC(C)(C)OC(=O)N1CCN(c2ccc(OCc3ccc(S(C)(=O)=O)cc3)nc2)CC1	FALSE
CC(C)(C)OC(=O)N1CCN(c2ccc(OCc3ccc(S(C)(=O)=O)cc3)cc2)CC1	TRUE
CC(C)(C)OC(=O)N1CCN(c2ncc(OCc3ccc(S(C)(=O)=O)cc3)cn2)CC1	TRUE
CC(C)(C)OC(=O)N1CCN(c2cnc(OCc3ccc(S(C)(=O)=O)cc3)nc2)CC1	TRUE
CC(C)(C)OC(=O)N1CCN(c2cnc(OCc3ccc(S(C)(=O)=O)cc3)cn2)CC1	TRUE

###

- assayText: Lipophilicity, log D of the compound at pH 7.4
- experimentalContext: buffer
Mark 1 for logD under 3, 0 if at or over.

smilesStructure	class
CC(C)(C)OC(=O)N1CCN(c2cnc(OCc3ccc(S(C)(=O)=O)cc3)cn2)CC1	0
CC(C)(C)OC(=O)N1CCN(c2ccc(OCc3ccc(S(C)(=O)=O)cc3)nn2)CC1	1
CC(C)(C)OC(=O)N1CCN(c2ccc(OCc3ccc(S(C)(=O)=O)cc3)cc2)CC1	0
CC(C)(C)OC(=O)N1CCN(c2ncc(OCc3ccc(S(C)(=O)=O)cc3)nn2)CC1	1
CC(C)(C)OC(=O)N1CCN(c2ccc(OCc3ccc(S(C)(=O)=O)cc3)cn2)CC1	0

Provenance of the data: ChEMBL document CHEMBL3217707
